The entries below come with measured viability, T/C values attached.
Test system: KRAS PDC multicell spheroid viability
measurement-protocol: Anticancer human tumor 521955-158-R6-J3-PDC patient-derived pancreatic carcinoma cell line growth inhibition [KRAS2]
condition-parameters: second compound 0.1 µM; first compound 0.0001 µM; active compounds read low
The answer is to be given in %; state only the numeric part.

| compound | value-units | viability, T/C |
| --- | --- | --- |
| CC(=O)Nc1cccc(-n2c(=O)n(C3CC3)c(=O)c3c(Nc4ccc(I)cc4F)n(C)c(=O)c(C)c32)c1 + COc1cc2nc(C)nc(NC(C)c3cc(N)cc(C(F)(F)F)c3)c2cc1OC1CCOC1 | % | 88 |

Challenge: Can you share its viability, T/C? I mean this compound: CC(=O)Nc1cccc(-n2c(=O)n(C3CC3)c(=O)c3c(Nc4ccc(I)cc4F)n(C)c(=O)c(C)c32)c1 + CC1OCC2(CCN(c3cnc(Sc4ccnc(N)c4Cl)c(N)n3)CC2)C1N
Response given: 87.8

Challenge: Note, next up: CC(=O)Nc1cccc(-n2c(=O)n(C3CC3)c(=O)c3c(Nc4ccc(I)cc4F)n(C)c(=O)c(C)c32)c1 + CNCc1ccccc1-c1csc(C(C)Nc2nc(C)nc3cc(OC)c(OC)cc23)c1
Response given: 84.3

Challenge: Note, next up: CC(=O)Nc1cccc(-n2c(=O)n(C3CC3)c(=O)c3c(Nc4ccc(I)cc4F)n(C)c(=O)c(C)c32)c1 + C=CC(=O)N1CCN(c2nc(OCC3CCCN3C)nc3c2CCN(c2cccc4cccc(C)c24)C3)CC1CC#N
Response given: 93.1

Challenge: Note, next up: CC(=O)Nc1cccc(-n2c(=O)n(C3CC3)c(=O)c3c(Nc4ccc(I)cc4F)n(C)c(=O)c(C)c32)c1 + C=CC(=O)N1CCN(c2nc(=O)n(-c3c(C)ccnc3C(C)C)c3nc(-c4c(O)cccc4F)c(F)cc23)C(C)C1
Response given: 97.7

----------
System: KRAS PDC multicell spheroid viability
measurement-protocol: Anticancer human tumor 521955-158-R6-J3-PDC cell line growth inhibition [KRAS2]; active = viability on the fitted dose curve at most 10% of control; inactive = the rest;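 note: drug exposure lasted seven days; 100% = DMSO vehicle wells and lower means fewer viable cells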
condition-parameters: second compound 10 µM; first compound 1 µM
Source text: Multicellular complex tumor spheroid response to RAS pathway inhibitors in combination with a targeted agents in patient-derived cell lines with oncogenic KRAS variants from multiple cancer types A high-throughput screen of multi-cell type tumor spheroids was designed to identify active combinations of targeted small molecules and KRAS pathway inhibitors. […] Compounds. […] If the clinical Cmax for an agent had not been determined, the highest concentration tested was 10 microM. […]
Returns: one label drawn from active, inactive

Examples with answers:
| compound | answer-label |
| --- | --- |
| Cn1nccc1Nc1nccc(-c2cc3c(s2)C(C)(C)N(CCN2CCOCC2)C3=O)n1 + CC1OCC2(CCN(c3cnc(Sc4ccnc(N)c4Cl)c(N)n3)CC2)C1N | inactive |
| O=C(c1cc(Cc2n[nH]c(=O)c3ccccc23)ccc1F)N1CCN(C(=O)C2CC2)CC1 + CNCc1ccccc1-c1csc(C(C)Nc2nc(C)nc3cc(OC)c(OC)cc23)c1 | active |
| CC1(C)CCC(CN2CCN(c3ccc(C(=O)NS(=O)(=O)c4ccc(NCC5CCOCC5)c([N+](=O)[O-])c4)c(Oc4cnc5[nH]ccc5c4)c3)CC2)=C(c2ccc(Cl)cc2)C1 + CC1OCC2(CCN(c3cnc(Sc4ccnc(N)c4Cl)c(N)n3)CC2)C1N | inactive |
| COC(=O)c1ccc2c(C(=Nc3ccc(N(C)C(=O)CN4CCN(C)CC4)cc3)c3ccccc3)c(O)[nH]c2c1 + COc1cc2nc(C)nc(NC(C)c3cc(N)cc(C(F)(F)F)c3)c2cc1OC1CCOC1 | active |
| CCN1CCN(Cc2ccc(Nc3ncc(F)c(-c4cc(F)c5nc(C)n(C(C)C)c5c4)n3)nc2)CC1 + COc1cc2nc(C)nc(NC(C)c3cc(N)cc(C(F)(F)F)c3)c2cc1OC1CCOC1 | inactive |
| CC(=O)OC12COC1CC(O)C1(C)C(=O)C(O)C3=C(C)C(OC(=O)C(O)C(NC(=O)OC(C)(C)C)c4ccccc4)CC(O)(C(OC(=O)c4ccccc4)C21)C3(C)C (stereo unspecified) + CC1OCC2(CCN(c3cnc(Sc4ccnc(N)c4Cl)c(N)n3)CC2)C1N | inactive |
| CC(C)NCC(C(=O)N1CCN(c2ncnc3c2C(C)CC3O)CC1)c1ccc(Cl)cc1 (stereo unspecified) + COc1cc2nc(C)nc(NC(C)c3cc(N)cc(C(F)(F)F)c3)c2cc1OC1CCOC1 | inactive |
| CC1(C)CCC(CN2CCN(c3ccc(C(=O)NS(=O)(=O)c4ccc(NCC5CCOCC5)c([N+](=O)[O-])c4)c(Oc4cnc5[nH]ccc5c4)c3)CC2)=C(c2ccc(Cl)cc2)C1 + C=CC(=O)N1CCN(c2nc(=O)n(-c3c(C)ccnc3C(C)C)c3nc(-c4c(O)cccc4F)c(F)cc23)C(C)C1 | inactive |

Challenge: What did the test return for CCN1CCN(Cc2ccc(Nc3ncc(F)c(-c4cc(F)c5nc(C)n(C(C)C)c5c4)n3)nc2)CC1 + C=CC(=O)N1CCN(c2nc(=O)n(-c3c(C)ccnc3C(C)C)c3nc(-c4c(O)cccc4F)c(F)cc23)C(C)C1 ?
Response given: inactive

Challenge: Note, next up: COC(=O)c1ccc2c(C(=Nc3ccc(N(C)C(=O)CN4CCN(C)CC4)cc3)c3ccccc3)c(O)[nH]c2c1 + CC1OCC2(CCN(c3cnc(Sc4ccnc(N)c4Cl)c(N)n3)CC2)C1N
Response given: inactive

Challenge: Note, next up: CCNC(=O)CC1N=C(c2ccc(Cl)cc2)c2cc(OC)ccc2-n2c(C)nnc21 (stereo unspecified) + COc1cc2nc(C)nc(NC(C)c3cc(N)cc(C(F)(F)F)c3)c2cc1OC1CCOC1
Response given: inactive

----------
The entries below come with measured viability, T/C values attached.
Test system: KRAS PDC multicell spheroid viability
measurement-protocol: Anticancer human tumor 521955-158-R6-J3-PDC cell line growth inhibition [KRAS2];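 note: drug exposure lasted seven days; 100% = DMSO vehicle wells and lower means fewer viable cells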
condition-parameters: second compound 0.1 µM; first compound 0.1 µM; active compounds read low
The answer is to be given in %; state only the numeric part.

| molecule | target | viability, T/C, % |
| --- | --- | --- |
| CCNC(=O)CC1N=C(c2ccc(Cl)cc2)c2cc(OC)ccc2-n2c(C)nnc21 (stereo not given) + COc1cc2nc(C)nc(NC(C)c3cc(N)cc(C(F)(F)F)c3)c2cc1OC1CCOC1 | KRAS PDC multicell spheroid viability | 87.3 |
| CCNC(=O)CC1N=C(c2ccc(Cl)cc2)c2cc(OC)ccc2-n2c(C)nnc21 (stereo not given) + C=CC(=O)N1CCN(c2nc(=O)n(-c3c(C)ccnc3C(C)C)c3nc(-c4c(O)cccc4F)c(F)cc23)C(C)C1 | KRAS PDC multicell spheroid viability | 93.7 |
| CCNC(=O)CC1N=C(c2ccc(Cl)cc2)c2cc(OC)ccc2-n2c(C)nnc21 (stereo not given) + CNCc1ccccc1-c1csc(C(C)Nc2nc(C)nc3cc(OC)c(OC)cc23)c1 | KRAS PDC multicell spheroid viability | 90.5 |

Challenge: Can you share its viability, T/C? I mean this molecule: Cn1ncnc1[C@H]1c2n[nH]c(=O)c3cc(F)cc(c23)N[C@@H]1c1ccc(F)cc1 + C=CC(=O)N1CCN(c2nc(OCC3CCCN3C)nc3c2CCN(c2cccc4cccc(C)c24)C3)CC1CC#N
Response given: 89.4

Challenge: Note, next up: CCN1CCN(Cc2ccc(Nc3ncc(F)c(-c4cc(F)c5nc(C)n(C(C)C)c5c4)n3)nc2)CC1 + C=CC(=O)N1CCN(c2nc(OCC3CCCN3C)nc3c2CCN(c2cccc4cccc(C)c24)C3)CC1CC#N
Response given: 85.7

----------
The entries below come with measured viability, T/C values attached.
Test system: KRAS PDC multicell spheroid viability
measurement-protocol: Anticancer human tumor 521955-158-R6-J3-PDC cell line growth inhibition [KRAS2];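 note: drug exposure lasted seven days; 100% = DMSO vehicle wells and lower means fewer viable cells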
condition-parameters: second compound 0.1 µM; first compound 0.1 µM; active compounds read low

| compound | target | viability, T/C |
| --- | --- | --- |
| O=C(c1cc(Cc2n[nH]c(=O)c3ccccc23)ccc1F)N1CCN(C(=O)C2CC2)CC1 + CC1OCC2(CCN(c3cnc(Sc4ccnc(N)c4Cl)c(N)n3)CC2)C1N | KRAS PDC multicell spheroid viability | 79.6% |
| CC(C)NCC(C(=O)N1CCN(c2ncnc3c2C(C)CC3O)CC1)c1ccc(Cl)cc1 (stereo not given) + CNCc1ccccc1-c1csc(C(C)Nc2nc(C)nc3cc(OC)c(OC)cc23)c1 | KRAS PDC multicell spheroid viability | 84.2% |

Challenge: Can you share its viability, T/C? I mean this compound: CN(C)C/C=C/C(=O)Nc1cc2c(Nc3ccc(F)c(Cl)c3)ncnc2cc1O[C@H]1CCOC1 + C=CC(=O)N1CCN(c2nc(=O)n(-c3c(C)ccnc3C(C)C)c3nc(-c4c(O)cccc4F)c(F)cc23)C(C)C1
Response given: 66.6%

Challenge: Note, next up: CC1COCCN1c1cc(-c2ccnn2C)c2ccnc(-c3ccn[nH]3)c2n1 (stereo not given) + CC1OCC2(CCN(c3cnc(Sc4ccnc(N)c4Cl)c(N)n3)CC2)C1N
Response given: 73.9%

Challenge: Note, next up: CC1(C)CCC(CN2CCN(c3ccc(C(=O)NS(=O)(=O)c4ccc(NCC5CCOCC5)c([N+](=O)[O-])c4)c(Oc4cnc5[nH]ccc5c4)c3)CC2)=C(c2ccc(Cl)cc2)C1 + C=CC(=O)N1CCN(c2nc(OCC3CCCN3C)nc3c2CCN(c2cccc4cccc(C)c24)C3)CC1CC#N
Response given: 97.3%

src = PubChem BioAssay AID1963864
